# test_target: human calcitonin receptor (CTR) and RAMP3 (AMY3) (Homo sapiens, UniProt O60896+P30988)
# Sequence (O60896 24-148): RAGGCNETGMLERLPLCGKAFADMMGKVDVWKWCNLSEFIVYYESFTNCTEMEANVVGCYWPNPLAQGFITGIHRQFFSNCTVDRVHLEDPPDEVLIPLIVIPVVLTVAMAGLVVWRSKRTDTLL
# Sequence (P30988 25-474): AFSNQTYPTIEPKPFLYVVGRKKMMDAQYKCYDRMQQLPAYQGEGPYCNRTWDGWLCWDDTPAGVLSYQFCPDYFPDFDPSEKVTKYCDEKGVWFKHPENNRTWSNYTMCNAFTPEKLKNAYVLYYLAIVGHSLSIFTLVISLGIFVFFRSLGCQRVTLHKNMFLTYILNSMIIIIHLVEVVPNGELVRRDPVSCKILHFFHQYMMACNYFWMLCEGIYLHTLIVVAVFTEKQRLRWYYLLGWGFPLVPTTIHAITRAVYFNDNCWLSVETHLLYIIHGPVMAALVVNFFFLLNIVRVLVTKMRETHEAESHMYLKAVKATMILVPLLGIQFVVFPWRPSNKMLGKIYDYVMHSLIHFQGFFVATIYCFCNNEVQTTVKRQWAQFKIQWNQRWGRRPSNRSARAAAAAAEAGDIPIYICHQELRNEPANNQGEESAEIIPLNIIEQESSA
# protocol_details: Amylin Receptor cAMP Assay II
# Type: cell-based
# conditions_used: COS-7/AMY3 cells, cAMP dynamic 2 kit, read-out: Amylin Receptor cAMP Stimulation Activity: EC50
Reported EC50 values are given for each entry in this list.

compound	test_target	EC50
Cc1nnc(-c2c(CCC34CCC(CC3)OC4)nc3c(c2-c2ccc4c(c2)oc(=O)n4Cc2ccc(C#N)cn2)c(=O)n2n3CCC2)o1	human calcitonin receptor (CTR) and RAMP3 (AMY3) (Homo sapiens, UniProt O60896+P30988)	83.4 nM
Cc1nnc(-c2c(CCC3CCOCC3)nc3c(c2-c2cc4ccnc(NCc5ccc(C#N)nc5)c4s2)S(=O)(=O)CC3C(C)C)o1 (stereo not drawn)	human calcitonin receptor (CTR) and RAMP3 (AMY3) (Homo sapiens, UniProt O60896+P30988)	1490 nM
Cc1nnc(-c2c(CC3COc4cc(F)ccc43)nc3c(c2-c2ccc(C(=O)NCc4ccc(F)c(F)c4)s2)C(=O)N2CCC[C@@H]32)o1 (stereo partly drawn)	human calcitonin receptor (CTR) and RAMP3 (AMY3) (Homo sapiens, UniProt O60896+P30988)	412 nM
Cc1nnc(-c2c(CCC3CC(C)OC(C)C3)nc3c(c2-c2cc4ncnc(N[C@@H]5CCc6ncccc65)c4s2)S(=O)(=O)CC3C(C)C)o1 (stereo partly drawn)	human calcitonin receptor (CTR) and RAMP3 (AMY3) (Homo sapiens, UniProt O60896+P30988)	352 nM
Cc1nnc(-c2c(CCC3CCOCC3)nc3c(c2-c2ccc4nn(Cc5ccc(C#N)c(F)c5)cc4c2)C(=O)N2CCOC[C@@H]32)o1	human calcitonin receptor (CTR) and RAMP3 (AMY3) (Homo sapiens, UniProt O60896+P30988)	2310 nM
COc1noc(-c2c(CCc3ccc(F)cc3)nc3c(c2-c2cc4ccnc(N[C@@H]5CCc6c(OC)cccc65)c4s2)C(=O)N2CCC[C@@H]32)n1	human calcitonin receptor (CTR) and RAMP3 (AMY3) (Homo sapiens, UniProt O60896+P30988)	318 nM

meta.source: patent US20250051355A1
